Assay: Stability of peptides in simulated gastric fluid (pH 1.5; HCl, NaCl and Pepsin)
Assay type: in vitro ADME
Settings: simulated gi fluid, pH 1.5
Where a SMILES comes first, the peptide text is derived from it. [ ]: non-standard residue; d: D form. ξ: configuration not given here. ξαMeBip(2'-Et,4'-OMe) = CCc1cc(OC)ccc1-c1ccc(CC(C)(N)C(=O)O)cc1; ξαMePhe(2,6-F2) = CC(N)(Cc1c(F)cccc1F)C(=O)O; ξαMePhe(2-F) = CC(N)(Cc1ccccc1F)C(=O)O; hhPhe = N[C@@H](CCCc1ccccc1)C(=O)O; hArg = N=C(N)NCCCC[C@H](N)C(=O)O; Cit = NC(=O)NCCC[C@H](N)C(=O)O; Nle = CCCC[C@H](N)C(=O)O; Ac5c = NC1(C(=O)O)CCCC1; Aib = CC(C)(N)C(=O)O
half-life: recorded values

Given CCCC[C@H](NC(=O)C(C)(Cc1c(F)cccc1F)NC(=O)[C@H](CCC(N)=O)NC(=O)[C@@H](NC(=O)[C@H](CCC(=O)O)NC(=O)C(C)(C)NC(=O)[C@@H](NC(=O)C1(N)CCCC1)C(C)C)[C@@H](C)CC)C(=O)N[C@@H](Cc1c[nH]cn1)C(=O)N[C@@H](CCC(N)=O)C(=O)NC(C)(Cc1c(F)cccc1F)C(=O)NC(C)(C)C(=O)N[C@@H](CCCNC(N)=O)C(=O)NC(C)(Cc1ccccc1F)C(N)=O (some centres unmarked) [Seq. ID. 480] (H-[Ac5c]V[Aib]EIQ[ξαMePhe(2,6-F2)][Nle]HQ[ξαMePhe(2,6-F2)][Aib][Cit][ξαMePhe(2-F)]-NH2) , state its recorded half-life.
> 24 h

Next up:
Given CCc1cc(OC)ccc1-c1ccc(CC(C)(NC(=O)[C@H](CCCCN)NC(=O)[C@H](C)NC(=O)[C@H](CCCCNC(=N)N)NC(=O)[C@H](CCC(N)=O)NC(=O)[C@H](Cc2c[nH]cn2)NC(=O)[C@H](CCSC)NC(=O)[C@H](CC(C)C)NC(=O)[C@H](CCC(N)=O)NC(=O)[C@@H](NC(=O)[C@H](CCC(=O)O)NC(=O)C(C)(C)NC(=O)[C@@H](NC(=O)C(C)(C)N)C(C)C)[C@@H](C)CC)C(=O)N[C@@H](CCCc2ccccc2)C(N)=O)cc1 (some centres unmarked) [Seq. ID. 890] (H-[Aib]V[Aib]EIQLMHQ[hArg]AK[ξαMeBip(2'-Et,4'-OMe)][hhPhe]-NH2) , state its recorded half-life.
> 24 h

----------
Assay: Stability of peptides in human liver microsomes
Assay type: in vitro ADME
Conditions: human, microsomes, 24 h, 2 μM, pH 7.8
Where a SMILES comes first, the peptide text is derived from it. [ ]: non-standard residue; d: D form. ξ: configuration not given here. ξαMePhe(2,6-F2) = CC(N)(Cc1c(F)cccc1F)C(=O)O; ξαMePhe(2-F) = CC(N)(Cc1ccccc1F)C(=O)O; hArg = N=C(N)NCCCC[C@H](N)C(=O)O; Cit = NC(=O)NCCC[C@H](N)C(=O)O; ξαMeF = CC(N)(Cc1ccccc1)C(=O)O; Nle = CCCC[C@H](N)C(=O)O; Orn = NCCC[C@H](N)C(=O)O; Ac5c = NC1(C(=O)O)CCCC1; Ac3c = NC1(C(=O)O)CC1; Aib = CC(C)(N)C(=O)O
% degradation of peptides in 24 h when incubated with liver microsomes: recorded values
Number only, in %; omit the unit.

Given CCCC[C@H](NC(=O)C(C)(Cc1ccccc1F)NC(=O)[C@H](CCC(N)=O)NC(=O)[C@@H](NC(=O)[C@H](CCC(=O)O)NC(=O)C(C)(C)NC(=O)[C@@H](NC(=O)C1(N)CCCC1)C(C)C)[C@@H](C)CC)C(=O)N[C@@H](Cc1c[nH]cn1)C(=O)N[C@@H](CCC(N)=O)C(=O)N[C@@H](CCCN)C(=O)N[C@@H](C)C(=O)NC(C)(Cc1c(F)cccc1F)C(=O)NC(C)(Cc1ccccc1F)C(N)=O (stereo partly drawn) [Seq. ID. 315] (H-[Ac5c]V[Aib]EIQ[ξαMePhe(2-F)][Nle]HQ[Orn]A[ξαMePhe(2,6-F2)][ξαMePhe(2-F)]-NH2) , state its recorded % degradation of peptides in 24 h when incubated with liver microsomes.
100

Given CCCC[C@H](NC(=O)C(C)(Cc1ccccc1F)NC(=O)[C@H](CCC(N)=O)NC(=O)[C@@H](NC(=O)[C@H](CCC(=O)O)NC(=O)C(C)(C)NC(=O)[C@@H](NC(=O)C(C)(C)N)C(C)C)[C@@H](C)CC)C(=O)N[C@@H](Cc1c[nH]cn1)C(=O)N[C@@H](CCC(N)=O)C(=O)N[C@@H](CCCN)C(=O)NC(C)(C)C(=O)N[C@@H](CCCNC(N)=O)C(=O)NC(C)(Cc1c(F)cccc1F)C(N)=O (stereo partly drawn) [Seq. ID. 290] (H-[Aib]V[Aib]EIQ[ξαMePhe(2-F)][Nle]HQ[Orn][Aib][Cit][ξαMePhe(2,6-F2)]-NH2) , state its recorded % degradation of peptides in 24 h when incubated with liver microsomes.
100

Further cases:
Given CC[C@H](C)[C@H](NC(=O)[C@H](CCC(=O)O)NC(=O)C(C)(C)NC(=O)[C@@H](NC(=O)C1(N)CC1)C(C)C)C(=O)N[C@@H](CCC(N)=O)C(=O)N[C@@H](CC(C)C)C(=O)N[C@@H](CCSC)C(=O)N[C@@H](Cc1c[nH]cn1)C(=O)N[C@@H](CCC(N)=O)C(=O)N[C@@H](CCCCNC(=N)N)C(=O)NC(C)(C)C(=O)N[C@@H](CCCCN)C(=O)NC(C)(Cc1ccccc1)C(N)=O (stereo partly drawn) [Seq. ID. 14] (H-[Ac3c]V[Aib]EIQLMHQ[hArg][Aib]K[ξαMeF]-NH2) , state its recorded % degradation of peptides in 24 h when incubated with liver microsomes.
77
